The measured values listed here are drawn from patent US9718804B2.

Item-by-item account of IC50
Biological target: GSK3β (Homo sapiens)
Assay: GSK3β kinase assay (Caliper LabChip, fluoresceinated peptide substrate)
Type: biochemical
Settings: first value of the cell; 250 pM enzyme, 20 uM ATP, 20 hours at room temperature; read-out: GSK3β/α (nM): GSK3β IC50
Measured parameter: IC50 (nM)

* O=C(Nc1cncc(N2CCOCC2)c1)c1ccnc(Nc2ccc(C(F)(F)F)cn2)c1 | 25
* Cc1cc(Nc2cc(C(=O)Nc3cnccc3-c3ccccc3)ccn2)ncc1F | 4.1
* CC(C)(C)COc1ccncc1NC(=O)c1ccnc(Nc2ccc(C(F)(F)F)cn2)c1 | 1.6
* Cc1cccc(Nc2cc(C(=O)Nc3cncc(-c4ccccc4F)c3)ccn2)n1 | 7.1
* CC1(C)CN(c2ccncc2NC(=O)c2ccnc(Nc3ccc(C#N)cn3)c2)CCO1 | 0.55
* O=C(Nc1cncc(-n2ccc(C(F)(F)F)n2)c1)c1ccnc(Nc2ccc(C(F)(F)F)cn2)c1 | 29
* COc1ccc(Nc2cc(C(=O)Nc3cncc(-c4ccccc4F)c3)ccn2)nc1OC | 6
* O=C(Nc1ccnnc1)c1ccnc(Nc2ccc(C(F)(F)F)cn2)c1 | 80
* O=C(Nc1cnccc1-c1ccccc1)c1ccnc(Nc2ccc(F)cn2)c1 | 4.1
* O=C(Nc1cnccc1C1(O)CCCCC1)c1ccnc(Nc2ccc(C(F)(F)F)cn2)c1 | 1.1
* O=C(Nc1cnccc1OCC(F)(F)F)c1ccnc(Nc2ccc(C(F)(F)F)cn2)c1F | 28
* O=C(Nc1cnc(F)cc1N1CCC(F)(F)CC1)c1ccnc(Nc2ccc(C(F)(F)F)cn2)c1 | 1.3
* O=C(Nc1cncc(-c2ccccc2F)c1)c1ccnc(Nc2ccc3cnccc3n2)c1 | 1.5
* C[C@H]1CO[C@](c2cc(Cl)ncc2NC(=O)c2ccnc(Nc3ccc(C(F)(F)F)cn3)c2)(C2CC2)O1 | 1.5
* O=C(Nc1cncc2ccccc12)c1ccnc(Nc2ccc(C(F)(F)F)cn2)c1 | 10
* O=C(Nc1cnc(Cl)cc1C1(O)CCOCC1)c1ccnc(Nc2ccc(C(F)(F)F)cn2)c1 | 3.4
* N#Cc1ccc(Nc2cc(C(=O)Nc3cnccc3OCC(F)(F)F)ccn2)nc1 | 0.69
* O=C(Nc1cnc(Cl)cc1SC1CC1)c1ccnc(Nc2ccc(C(F)(F)F)cn2)c1 | 11
* CC1(c2cc(F)ncc2NC(=O)c2ccnc(Nc3ccc(C(F)(F)F)cn3)c2)OCCO1 | 7.1

====

Biological target: UniProt P49840
Experiment: GSK3α kinase assay (Caliper LabChip, fluoresceinated peptide substrate)
Format: biochemical
Exam item: assign t to entries whose IC50 is below 1 nM and f to entries at or above 1 nM. Note that a value of exactly 1 nM receives f.

- N#Cc1ccc(Nc2cc(C(=O)Nc3cncc(-c4ccccc4F)c3)ccn2)nc1 [Example 135]: f
- O=C(Nc1cnccc1-c1ccc(F)cc1)c1ccnc(Nc2ccc(C(F)(F)F)cn2)c1 [Example 50]: t
- N#Cc1cccc(Nc2cc(C(=O)Nc3cncc(-c4ccc(C#N)c(F)c4)c3)ccn2)n1 [Example 165]: t
- O=C(Nc1cnccc1-c1ccccc1)c1ccnc(Nc2cccc(C(F)(F)F)n2)c1 [Example 2]: f
- O=C(Nc1cncc(-c2cc(F)ccc2F)c1)c1ccnc(Nc2ccc(C(F)(F)F)cn2)c1 [Example 129]: f
- N#CC1(c2ccc(Nc3cc(C(=O)Nc4cncc(-c5ccccc5F)c4)ccn3)nc2)CC1 [Example 163]: f
- O=C(Nc1cnccc1C1(F)COC1)c1ccnc(Nc2ccc(C(F)(F)F)cn2)c1 [Example 45]: f
- O=C(Nc1cnccc1S(=O)(=O)CC(F)(F)F)c1ccnc(Nc2ccc(C(F)(F)F)cn2)c1 [Example 184]: f
- CC1(c2cnncc2NC(=O)c2ccnc(Nc3ccc(C(F)(F)F)cn3)c2)OCCO1 [Example 200]: t
- CC(C)(C#N)c1ccc(Nc2cc(C(=O)Nc3cncc(-c4ccccc4F)c3)ccn2)nc1 [Example 164]: f
- O=C(Nc1cnccc1OCC(F)(F)F)c1ccnc(Nc2ccc(C(F)(F)F)cn2)c1F [Example 169]: f
- Cc1cc(C(C)(O)C2CC2)c(NC(=O)c2ccnc(Nc3ccc(C(F)(F)F)cn3)c2)cn1 (centres unmarked) [Example 107]: t
- O=C(Nc1cnccc1-c1ccc(F)cc1F)c1ccnc(Nc2ccc(C(F)(F)F)cn2)c1 [Example 54]: t
- C[C@@H]1COCCN1c1ccncc1NC(=O)c1ccnc(Nc2ccc(C(F)(F)F)cn2)c1 [Example 21]: t
- N#Cc1ccc(Nc2cc(C(=O)Nc3cnccc3-c3ccccc3)ccn2)nc1 [Example 10]: t
- O=C(Nc1cnccc1[S+]([O-])c1ccccc1)c1ccnc(Nc2ccc(C(F)(F)F)cn2)c1 (centres unmarked) [Example 177]: f
- O=C(Nc1cnc(Cl)cc1C(=O)C1CC1)c1ccnc(Nc2ccc(C(F)(F)F)cn2)c1 [Example 92]: f

====

Item-by-item account of pIC50
Molecular target: GSK3α (Homo sapiens, UniProt P49840)
Sequence (P49840 whole entry, species assumed): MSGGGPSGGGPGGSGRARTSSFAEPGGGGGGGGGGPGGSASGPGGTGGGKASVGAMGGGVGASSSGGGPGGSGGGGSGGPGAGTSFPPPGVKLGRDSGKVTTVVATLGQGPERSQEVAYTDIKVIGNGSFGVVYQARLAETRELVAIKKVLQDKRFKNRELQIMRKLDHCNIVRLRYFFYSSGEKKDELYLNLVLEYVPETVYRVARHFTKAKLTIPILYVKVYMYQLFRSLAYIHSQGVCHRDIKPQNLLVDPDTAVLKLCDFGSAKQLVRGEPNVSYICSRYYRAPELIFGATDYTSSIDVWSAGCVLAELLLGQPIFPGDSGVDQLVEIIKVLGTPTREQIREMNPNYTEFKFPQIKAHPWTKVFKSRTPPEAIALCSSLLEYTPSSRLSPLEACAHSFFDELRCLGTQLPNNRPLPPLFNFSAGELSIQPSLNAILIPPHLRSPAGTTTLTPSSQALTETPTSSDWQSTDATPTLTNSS
Assay: GSK3α kinase assay (Caliper LabChip, fluoresceinated peptide substrate)
Assay type: biochemical
Method: The kinase assay was performed in V-bottom 384-well plates. […] The reaction was incubated at room temperature for 20 hours and terminated by adding 45 μl of 35 mM EDTA to each sample. The reaction mixture was analyzed on the Caliper LabChip3000 (Caliper, Hopkinton, Mass.) by electrophoretic separation of the unphosphorylated substrate and phosphorylated product. […] Compounds were dissolved at 10 mM in dimethylsulfoxide (DMSO) and evaluated at eleven concentrations. […]
pIC50: −log10 of the molar value.
Measured parameter: pIC50

• COc1ccc(Nc2cc(C(=O)Nc3cncc(-c4ccccc4F)c3)ccn2)nc1OC = 8.62
• CC(=O)c1ccncc1NC(=O)c1ccnc(Nc2ccc(C(F)(F)F)cn2)c1 = 8.82
• N#Cc1ccc(Nc2cc(C(=O)Nc3cnccc3N3CCCCC3)ccn2)nc1 = 9.74
• CC(=O)c1ccc(Nc2cc(C(=O)Nc3cncc(-c4ccccc4F)c3)ccn2)nc1 = 8.52
• O=C(Nc1cnccc1-c1ccccc1)c1ccnc(Nc2cc3ccccc3cn2)c1 = 9.19
• O=C(Nc1cnc(Cl)cc1SC1CC1)c1ccnc(Nc2ccc(C(F)(F)F)cn2)c1 = 8.15
• N#Cc1ccc(Nc2cc(C(=O)Nc3cncc4ccccc34)ccn2)nc1 = 8.49
• CC(C)(C)C(O)c1cc(Cl)ncc1NC(=O)c1ccnc(Nc2ccc(C(F)(F)F)cn2)c1 (centres unmarked) = 8.00

====

Molecular target: GSK3β (Homo sapiens, UniProt P49841)
Sequence (P49841 whole entry, species assumed): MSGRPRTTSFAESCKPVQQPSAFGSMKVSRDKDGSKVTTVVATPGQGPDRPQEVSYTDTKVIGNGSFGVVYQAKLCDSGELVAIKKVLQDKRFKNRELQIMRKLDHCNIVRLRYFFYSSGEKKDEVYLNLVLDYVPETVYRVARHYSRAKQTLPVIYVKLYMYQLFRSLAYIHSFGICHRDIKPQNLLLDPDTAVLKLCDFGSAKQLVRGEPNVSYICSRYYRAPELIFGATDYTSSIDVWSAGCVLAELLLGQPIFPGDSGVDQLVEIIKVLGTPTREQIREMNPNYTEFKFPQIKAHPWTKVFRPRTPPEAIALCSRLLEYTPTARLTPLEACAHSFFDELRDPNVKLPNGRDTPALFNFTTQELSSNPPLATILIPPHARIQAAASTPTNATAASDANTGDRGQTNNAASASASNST
Test: GSK3β kinase assay (Caliper LabChip, fluoresceinated peptide substrate)
Assay type: biochemical
Details: first value of the cell; 250 pM enzyme, 20 uM ATP, 20 hours at room temperature; read-out: GSK3β/α (nM): GSK3β IC50
Exam item: assign YES to entries whose IC50 is below 2 nM and NO to entries at or above 2 nM. Note that a value of exactly 2 nM receives NO.

• CC(C)(C#N)c1ccc(Nc2cc(C(=O)Nc3cnccc3-c3ccccc3)ccn2)nc1 = YES
• O=C(Nc1cnccn1)c1ccnc(Nc2ccc(C(F)(F)F)cn2)c1 = NO
• COc1cc(C2(C)OCCO2)c(NC(=O)c2ccnc(Nc3ccc(C(F)(F)F)cn3)c2)cn1 = NO
• CC(C)[S+]([O-])c1ccncc1NC(=O)c1ccnc(Nc2ccc(C(F)(F)F)cn2)c1 (centres unmarked) = NO
• CN(C)S(=O)(=O)c1ccc(Nc2cc(C(=O)Nc3cncc(-c4ccccc4F)c3)ccn2)nc1 = NO
• CC1(C)CN(c2ccncc2NC(=O)c2ccnc(Nc3ccc(C(F)(F)F)cn3)c2)CCO1 = YES
• O=C(Nc1cnc(F)cc1-c1ccccc1)c1ccnc(Nc2ccc(C(F)(F)F)cn2)c1 = NO
• N#CC1(c2ccc(Nc3cc(C(=O)Nc4cnccc4-c4ccccc4)ccn3)nc2)CC1 = YES

====

Molecular target: GSK3α (Homo sapiens)
Experiment: GSK3α kinase assay (Caliper LabChip, fluoresceinated peptide substrate)
Type: biochemical
Exam item: assign met to entries whose IC50 is below 2 nM and not met to entries at or above 2 nM. Note that a value of exactly 2 nM receives not met.

* CCCS(=O)(=O)c1ccncc1NC(=O)c1ccnc(Nc2ccc(C(F)(F)F)cn2)c1 | not met
* O=C(Nc1cnccc1-c1ccccc1)c1ccnc(Nc2ccc3ccccc3n2)c1 | not met
* N#Cc1ccc(Nc2cc(C(=O)Nc3cnccc3-c3ccc(F)cc3F)ccn2)nc1 | met
* CC1(c2cc(Cl)ncc2NC(=O)c2ccnc(Nc3ccc(C(F)(F)F)cn3)c2)OCCO1 | met
* O=C(Nc1cncc(-c2cccc(F)c2F)c1)c1ccnc(Nc2cccc(C(F)(F)F)n2)c1 | not met
* Cc1cc(C(O)C2CC2)c(NC(=O)c2ccnc(Nc3ccc(C(F)(F)F)cn3)c2)cn1 (stereo not shown) | met
* O=C(Nc1cnccc1C1(O)CCCCC1)c1ccnc(Nc2ccc(C(F)(F)F)cn2)c1 | met
* CC(C)Oc1ccncc1NC(=O)c1ccnc(Nc2ccc(C(F)(F)F)cn2)c1 | met
* CC1(C)CN(c2ccncc2NC(=O)c2ccnc(Nc3ccc(C#N)cn3)c2)CCO1 | met
* O=C(Nc1cnccc1OCC(F)(F)F)c1ccnc(Nc2ccc(Cl)cn2)c1 | met
* O=C(Nc1cncc(OCC2CC2)c1)c1ccnc(Nc2cccc(C(F)(F)F)n2)c1 | not met
* Cc1cc(Nc2cc(C(=O)Nc3cnccc3-c3ccccc3)ccn2)ncc1F | not met
* CN(C)S(=O)(=O)c1ccc(Nc2cc(C(=O)Nc3cncc(-c4ccccc4F)c3)ccn2)nc1 | met
* CC[C@@]1(c2cc(Cl)ncc2NC(=O)c2ccnc(Nc3ccc(C(F)(F)F)cn3)c2)OC[C@@H](C(F)(F)F)O1 | not met
* O=C(Nc1cnc(Cl)cc1C(O)(C1CC1)C1CC1)c1ccnc(Nc2ccc(C(F)(F)F)cn2)c1 | not met
* CC(C)C1(c2cc(Cl)ncc2NC(=O)c2ccnc(Nc3ccc(C(F)(F)F)cn3)c2)OCCO1 | met
